# Emax (MFI) per record follows
target: T1, endogenous cell surface human MSLN (human, UniProt Q13421 296-598); assay: flow cytometry, NCI-H226 cells + 20 nM soluble MSLN
T1 construct: whole, on cells; The cell line is named under assay; also called cell-surface MSLN on NCI-H226, OVCAR-3 and AsPC-1 cells
T1 sequence (Q13421 other isoform, or with tags, fused parts or gaps limits assumed): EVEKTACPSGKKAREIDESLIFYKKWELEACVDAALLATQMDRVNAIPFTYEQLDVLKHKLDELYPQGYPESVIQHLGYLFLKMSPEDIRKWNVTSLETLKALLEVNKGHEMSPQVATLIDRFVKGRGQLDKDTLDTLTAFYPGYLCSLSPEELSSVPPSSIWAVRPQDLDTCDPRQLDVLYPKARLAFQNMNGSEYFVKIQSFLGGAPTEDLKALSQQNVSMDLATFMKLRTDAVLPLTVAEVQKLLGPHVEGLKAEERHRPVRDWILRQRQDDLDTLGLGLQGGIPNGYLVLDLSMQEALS

| binder | Emax (MFI) |
| --- | --- |
| FS22-172-003-AA/FS28-256 (bispecific antibody, human IgG1, kappa, L234A L235A, V domains shown, IgG1 mAb^2 with LALA) VH: EVQLLESGGGLVQPGGSLRLSCAASGFTFTNTYMSWVRQAPGKGLEWVSNISPTYSTTNYADSVKGRFTISRDNSKNTLYLQMNSLRAEDTAVYYCARYNSYQGGLDYWGQGTLVTVSS VL: EIVLTQSPGTLSLSPGERATLSCRASQSVSSSYLAWYQQKPGQAPRLLIYGASSRATGIPDRFSGSGSGTDFTLTISRLEPEDFAVYYCQQSYYYPITFGQGTKVEIKR | 200000 |
| FS22-172-003-AA/FS28-256-024 (bispecific antibody, human IgG1, kappa, L234A L235A, V domains shown, IgG1 mAb^2 with LALA) VH: EVQLLESGGGLVQPGGSLRLSCAASGFTFTHTYMSWVRQAPGKGLEWVSNISPTYSTTNYADSVKGRFTISRDNNKNTLYLQMNSLRAEDTAVYYCARYNAYHAALDYWGQGTLVTVSS VL: EIVLTQSPGTLSLSPGERATLSCRASQSVSSSYLAWYQQKPGQAPRLLIYGASSRATGIPDRFSGSGSGTDFTLTISRLEPEDFAVYYCQQALGYPHTFGQGTKVEIKR | 675000 |
| FS22-172-003-AA/FS28-256-026 (bispecific antibody, human IgG1, kappa, L234A L235A, V domains shown, IgG1 mAb^2 with LALA) VH: EVQLLESGGGLVQPGGSLRLSCAASGFTFTQTYMSWVRQAPGKGLEWVSNISPTYSTTNYADSVKGRFTISRDNSKNTLYLQMNSLRAEDTAVYYCARYNAYQIGLDYWGQGTLVTVSS VL: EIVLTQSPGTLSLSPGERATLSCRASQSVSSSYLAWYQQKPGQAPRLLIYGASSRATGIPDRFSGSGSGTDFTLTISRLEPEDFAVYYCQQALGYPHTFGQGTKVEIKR | 688000 |
